# Protocol notes: NCI Yeast Anticancer Drug Screen. Data for the rad50 strain (AID 155);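 also: 0% = growth of vehicle-only cultures of the same strain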
# Measurement conditions: S. cerevisiae rad50 strain growth inhibition; at 50.0 µM; stronger effect = higher value
About 79,000 compounds went through this panel and 15% of them were active in at least one assay; those are over-represented in the sample as a whole.
The molecules listed here are annotated with their growth inhibition.
Assay endpoint: growth inhibition (%)

1. CC(=O)CC(C)=NCCCCN=C(C)CC(C)=O = -12.6
2. Cc1cc(C)[n+](C)c(/C=C/c2ccc([N+](=O)[O-])cc2)n1 = 14.2
3. c1ccc(-c2csc(-c3nc(-c4ccccc4)cs3)n2)cc1 = -0.55
4. COn1nnc2c([N+](=O)[O-])cccc21 = 18.8
5. O=[N+]([O-])c1ccc(NN=C2CCCCCC2)c([N+](=O)[O-])c1 = 5.95
6. Cc1cccc2c(=O)[nH]c(=O)[nH]c12 = -14.2
7. Nc1nc(SCC(=O)c2ccc(Br)cc2)c2[nH]cnc2n1 = 23.2
8. Cc1ccc(S(=O)(=O)N/N=C/c2oc(-c3ccccc3Cl)c(-c3ccccc3Cl)c2[N+](=O)[O-])cc1 = 54.2
9. CC(=O)OCc1cn(S(=O)(=O)c2ccc(C)cc2)cn1 = 17.9
10. CCN(CC)CCNCc1ccc(Cl)cc1 = -16.5
11. Nc1ccc(-c2cc[cH-]c2)cc1.[Fe+2].c1cc[cH-]c1 = 8.2
